Test: in vitro
Conditions: human, cytotoxicity CC50
Experimental: The extracts and the isolated compounds were tested for antiviral activity against RSV by the viral plaque reduction assay in cultures of HEp-2 cells (Table 3, Supporting Information). […] Figure S130. […] After addition of the tetrazolium (MTS)-based reagent the absorbance was recorded at 490 nm. The results are expressed as a percentage of absorbance developed in extract treated cells relative to DMSO treated controls. […]
quantityName: CC50 at 3 days

NC(=O)c1ncn([C@@H]2O[C@H](CO)[C@@H](O)[C@H]2O)n1 [ribavirin, reference compound] : > 100 µM

---

assay: Tetrazolium-based cytotoxicity assay in HeLa cells; assay type: cell-based; settings: human, 34 °C
quantityName: CC50 at 3 days (µM)

COc1ccc2c(=O)c3c(oc2c1)COc1cc2c(cc1-3)OCO2 [Compound 3] : 48

Source listed as paper PMC11061832.
